Below, each entry is listed alongside its reported IC50.
- System: MCF7
- Assay protocol: Antiproliferative activity against human MCF7 cells assessed as inhibition of cell growth by [3H]thymidine incorporation assay
- Assay type: functional, cell-based
Lab book: enter the figure in µM, no units written.

INSERT INTO measurements (smiles_record, assay_result) VALUES
  ('c1ccc(-c2cc(SN3CCCC3)nnc2-c2ccccc2)cc1', 15),
  ('c1ccc(-c2cc(SN3CCOCC3)nnc2-c2ccccc2)cc1', 87);

Turning now to a further compound:
Please look up its IC50: c1ccc(-c2nnc(SSc3nnc(-c4ccccc4)c(-c4ccccc4)n3)nc2-c2ccccc2)cc1
35

* * *

Below, each entry is listed alongside its reported IC50.
- Test system: KB
- Assay protocol: Antiproliferative activity against human KB cells assessed as inhibition of cell growth under hypoxia condition
- Format: functional, cell-based
Quick note: unit goes after the number.

INSERT INTO assay_data (compound, experimental_target, assay_result) VALUES
  ('COCNc1n[n+]([O-])c2ccccc2[n+]1[O-]', 'KB', '2700 nM'),
  ('CCCCCOCNc1n[n+]([O-])c2ccccc2[n+]1[O-]', 'KB', '2900 nM'),
  ('COc1ccc2c(c1)[n+]([O-])nc(NCOCc1ccccc1)[n+]2[O-]', 'KB', '4470 nM'),
  ('CCCOCNc1n[n+]([O-])c2ccccc2[n+]1[O-]', 'KB', '3740 nM'),
  ('COc1ccc(COCNc2n[n+]([O-])c3ccccc3[n+]2[O-])cc1', 'KB', '3320 nM'),
  ('[O-][n+]1nc(NCOC2CCCCC2)[n+]([O-])c2ccccc21', 'KB', '1200 nM'),
  ('CC(OCNc1n[n+]([O-])c2ccccc2[n+]1[O-])c1ccccc1 (stereo unspecified)', 'KB', '2810 nM'),
  ('O=[N+]([O-])c1cccc(COCNc2n[n+]([O-])c3ccccc3[n+]2[O-])c1', 'KB', '3440 nM');

Please look up its IC50: CCCCOCNc1n[n+]([O-])c2ccccc2[n+]1[O-]
2320 nM

Please look up its IC50: [O-][n+]1nc(NCOCc2ccc(Cl)cc2)[n+]([O-])c2ccccc21
2190 nM

Please look up its IC50: [O-][n+]1nc(NCOCc2ccc(C(F)(F)F)cc2)[n+]([O-])c2ccccc21
4270 nM

* * *

pIC50 data for Tyrosine-protein kinase JAK2 (Homo sapiens, UniProt O60674) follow.
pIC50: −log10 of the molar value.

Please look up its pIC50: CC(C)(C)CNC(=O)C(C)(C)Nc1cnnc(-c2c[nH]c3ncc(C(N)=O)cc23)n1
≥ 8.00

Please look up its pIC50: CC(C)C(Nc1cnnc(-c2c[nH]c3ncc(C(N)=O)cc23)n1)C(=O)NCC(C)(C)C (stereo not drawn)
≥ 8.00

Please look up its pIC50: CC(Nc1cnnc(-c2c[nH]c3ncc(C(N)=O)cc23)n1)C(=O)NCC(C)(C)C (stereo not drawn)
≥ 8.00

* * *

IC50 data for Epidermal growth factor receptor (Homo sapiens) follow.

INSERT INTO assay_data (smiles_record, assay_result) VALUES
  ('Fc1ccc(Nc2ncnn3cccc23)cc1Cl', '> 10 µM');

Please look up its IC50: Cc1cc2c(Nc3ccc(F)c(Cl)c3)ncnn2c1
> 2 µM

Please look up its IC50: Cc1ccc2c(Nc3ccc(F)c(Cl)c3)ncnn12
> 2 µM

Please look up its IC50: Cc1ccn2ncnc(Nc3ccc(F)c(Cl)c3)c12
> 10 µM
